Reference source for all entries: paper PMC8301817

Biological target: T1, Paby-Hel308 (Pyrococcus abyssi, UniProt Q9V0A9 1-715)
T1 sequence: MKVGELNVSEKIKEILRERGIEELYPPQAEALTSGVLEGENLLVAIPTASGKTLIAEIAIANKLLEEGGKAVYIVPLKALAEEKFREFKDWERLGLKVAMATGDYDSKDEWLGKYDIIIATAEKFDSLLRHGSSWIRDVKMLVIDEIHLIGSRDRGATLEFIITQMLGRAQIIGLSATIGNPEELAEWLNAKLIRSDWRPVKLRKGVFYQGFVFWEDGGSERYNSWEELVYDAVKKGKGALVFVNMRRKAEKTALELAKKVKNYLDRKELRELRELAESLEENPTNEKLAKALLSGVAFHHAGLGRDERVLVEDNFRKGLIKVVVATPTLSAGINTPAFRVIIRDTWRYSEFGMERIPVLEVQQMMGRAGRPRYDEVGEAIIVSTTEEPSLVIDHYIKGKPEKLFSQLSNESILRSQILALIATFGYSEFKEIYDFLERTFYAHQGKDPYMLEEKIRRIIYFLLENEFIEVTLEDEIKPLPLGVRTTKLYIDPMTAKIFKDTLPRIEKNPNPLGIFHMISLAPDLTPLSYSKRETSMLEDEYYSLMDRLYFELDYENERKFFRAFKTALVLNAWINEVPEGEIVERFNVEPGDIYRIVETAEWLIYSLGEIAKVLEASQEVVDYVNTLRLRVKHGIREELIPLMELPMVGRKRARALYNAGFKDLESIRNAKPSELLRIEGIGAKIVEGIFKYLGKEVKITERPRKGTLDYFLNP
Experiment: filter binding; 5 mM Mg2+; 25 mM Tris-HCl pH 8, 50 mM NaAc, 5 mM MgCl2, 2.5 mM beta-mercaptoethanol; protein preincubated 10 min 65 C, binding 15 min 30 C; 0.5 nM substrate (Methods); Resu
Settings: protein: recombinant; tags: untagged; label: 5'-32P; single strand
pKd: −log10 of the molar value.
Recorded pKd values for a group of binders are listed next.

BINDER	pKd
ATCGATAGTCTCTAGACAGCATGTCCTAGCAAGCCAGAATTCGGCAGCGT (ssDNA) [DNA50]	7.49
AUCGAUAGUCUCUAGACAGCAUGUCCUAGCAAGCCAGAAUUCGGCAGCGU (ssRNA) [RNA50]	7.42
